Reference source for all entries: ChEMBL document CHEMBL5247620

# Test: Cytotoxicity against human BJ cells assessed as inhibition of cell growth incubated for 72 hrs by MTS assay
# Format: toxicity, cell-based
Readout: IC50 at 72 h (µM)
Numbers only, in µM.

In [3]: df
Out[3]:
                           structure_smiles  output_unit  obs_value
0  C=C(C)[C@@H]1CC[C@]2(C(=O)O)CC[C@]3(C)[C@H](CC[C@@H]4[C@@]5(C)CC=C(c6ccc(C(=O)OC)cc6)C(C)(C)[C@@H]5CC[C@]43C)[C@@H]12           µM         47

Shifting focus to the molecule that follows.
Query: Dear colleague, I am looking for the recorded IC50 at 72 h of the following molecule: C=C(C)[C@@H]1CC[C@]2(C(=O)O)CC[C@]3(C)[C@H](CC[C@@H]4[C@@]5(C)CC=C(c6cccc(O)c6)C(C)(C)[C@@H]5CC[C@]43C)[C@@H]12
Reply: 31

====

# Test system: CEM-DNR
# Test: Cytotoxicity against human CEM-DNR cells assessed as inhibition of cell growth incubated for 72 hrs by MTS assay
# Assay type: functional, cell-based
Readout: pIC50
One number for each entry, as −log10 of the molar value.

Structure Smiles	pIC50
C=C(C)[C@@H]1CC[C@]2(C(=O)O)CC[C@]3(C)[C@H](CC[C@@H]4[C@@]5(C)CC=C(c6ccc(C(=O)OC)cc6)C(C)(C)[C@@H]5CC[C@]43C)[C@@H]12	4.33
C=C(C)[C@@H]1CC[C@]2(C(=O)O)CC[C@]3(C)[C@H](CC[C@@H]4[C@@]5(C)CC=C(c6ccccc6O)C(C)(C)[C@@H]5CC[C@]43C)[C@@H]12	4.52
C=C(C)[C@@H]1CC[C@]2(C(=O)O)CC[C@]3(C)[C@H](CC[C@@H]4[C@@]5(C)CC=C(c6cccc(OC)c6)C(C)(C)[C@@H]5CC[C@]43C)[C@@H]12	4.51

The record that follows has no pIC50 shown yet.
Query: State its pIC50 on CEM-DNR: C=C(C)[C@@H]1CC[C@]2(C(=O)O)CC[C@]3(C)[C@H](CC[C@@H]4[C@@]5(C)CC=C(c6cccc(C(F)(F)F)c6)C(C)(C)[C@@H]5CC[C@]43C)[C@@H]12
Reply: 4.43

====

For each entry below, report its IC50 at 72 h value.
# Test: Cytotoxicity against human BJ cells assessed as inhibition of cell growth incubated for 72 hrs by MTS assay
# Type: toxicity, cell-based

Worked examples follow.
>>> df
                           structure_smiles  obs_value
0  C=C(C)[C@@H]1CC[C@]2(C(=O)O)CC[C@]3(C)[C@H](CC[C@@H]4[C@@]5(C)CC=C(c6cccc(C(F)(F)F)c6)C(C)(C)[C@@H]5CC[C@]43C)[C@@H]12    > 50 µM
1  C=C(C)[C@@H]1CC[C@]2(C(=O)O)CC[C@]3(C)[C@H](CC[C@@H]4[C@@]5(C)CC=C(c6ccc(O)cc6)C(C)(C)[C@@H]5CC[C@]43C)[C@@H]12      31 µM

Next up:
Query: Give the measured IC50 at 72 h of C=C(C)[C@@H]1CC[C@]2(C(=O)O)CC[C@]3(C)[C@H](CC[C@@H]4[C@@]5(C)CC=C(c6cccc(OC)c6)C(C)(C)[C@@H]5CC[C@]43C)[C@@H]12 .
Reply: > 50 µM
